# Lookup of reported pIC50 keyed by entry
# TESTED_ON: CDK6/Cyclin D3 (Homo sapiens (Human), UniProt Q00534)
# Sequence (Q00534 whole entry): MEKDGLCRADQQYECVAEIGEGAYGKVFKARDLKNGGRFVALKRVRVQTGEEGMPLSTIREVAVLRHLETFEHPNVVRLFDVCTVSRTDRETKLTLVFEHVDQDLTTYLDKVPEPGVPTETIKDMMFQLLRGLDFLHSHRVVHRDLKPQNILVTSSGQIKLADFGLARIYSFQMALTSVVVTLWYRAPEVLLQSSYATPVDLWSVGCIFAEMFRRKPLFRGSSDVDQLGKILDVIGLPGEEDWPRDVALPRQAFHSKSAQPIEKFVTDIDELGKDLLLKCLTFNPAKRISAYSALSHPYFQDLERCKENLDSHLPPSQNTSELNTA
# Sequence (P30281 whole entry partner): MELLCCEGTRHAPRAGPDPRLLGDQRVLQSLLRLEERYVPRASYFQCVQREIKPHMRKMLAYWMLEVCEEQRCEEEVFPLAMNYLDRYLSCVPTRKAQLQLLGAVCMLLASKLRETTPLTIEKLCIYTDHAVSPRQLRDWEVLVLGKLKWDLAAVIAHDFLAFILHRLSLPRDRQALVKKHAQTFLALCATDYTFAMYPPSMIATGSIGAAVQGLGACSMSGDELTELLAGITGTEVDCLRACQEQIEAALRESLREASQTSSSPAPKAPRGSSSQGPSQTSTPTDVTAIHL
# METHOD_DESCRIPTION: CDK6/Cyclin D3 ADP-Glo Kinase Assay
# TEST_SETTINGS: 100 uM ATP, read-out: CDK6/ CyclinD3 IC50
pIC50: −log10 of the molar value.

Consider the following illustrative entries.
What value of pIC50 has been reported for the following compound? [2H]C([2H])([2H])N1CC2(CN(c3nc(C)cc4cnc(NC5CCN(S(C)(=O)=O)CC5)nc34)CC2(F)F)C1
> 6.70

# input compound: Cc1cc2cnc(NC3CCN(S(=O)(=O)C4(C)CC4)CC3)nc2c(C2CC(C)(O)C2)n1 (stereo not shown) ; wanted: its pIC50
< 5.70

Name the reported pIC50 value associated with the compound Cc1cc2cnc(NC3CCN(S(=O)(=O)C4CC4)CC3)nc2c(N2CC3(C2)CC(C)(O)C3)n1
6.30 to 6.70

Next:
Any idea what pIC50 was measured for CN1Cc2ccc(Nc3ncc4ccnc(N5CCC6(CCN(S(C)(=O)=O)C6)C5)c4n3)cc2C1 (stereo not shown) ?
> 6.70

Which pIC50 value is on record for O=S(=O)(CC1CCC1)N1CCC(Nc2ncc3cc(C(F)F)nc(N4CC5(CCNC5)C4)c3n2)CC1 ?
> 6.70

// query pIC50 value for entry COC1CC2(C1)CN(c1nc(C)cc3cnc(NC4CCN(S(C)(=O)=O)CC4)nc13)C2
> 6.70

Find the recorded pIC50 belonging to CN1CCn2nc(Nc3ncc4ccnc(N5CCC6(C5)CC6(F)F)c4n3)cc2C1 (stereo not shown) and report it.
> 6.70

---

# TESTED_ON: CDK2/Cyclin E1 (Homo sapiens (Human), UniProt P24941)
# METHOD_DESCRIPTION: CDK2/Cyclin E1 Full length ADP-Glo Kinase Assay
# TEST_SETTINGS: 20 uM ATP, read-out: CDK2/ CyclinE1 IC50
pIC50: −log10 of the molar value.
Reported pIC50 is given for each of the following compounds.

The following compounds have reported results that may help.
Record request: pIC50 value, item Cc1cc2cnc(NC3CCN(S(=O)(=O)C4(C)CC4)CC3)nc2c(C2CC(C)(O)C2)n1 (stereo not shown)
6.30 to 6.70

# lookup: pIC50 of Cc1cc2cnc(NC3CCN(S(C)(=O)=O)CC3)nc2c(N2CC3(CN(C)CC3(F)F)C2)n1
> 6.70

// switching to the query compound
So what does the record say about pIC50 for Cc1cc2cnc(NC3CCN(S(=O)(=O)c4cnn(C)c4)CC3)nc2c(N2CC(F)(F)C3(CNC3)C2)n1 ?
> 6.70

---

# TESTED_ON: CDK1/Cyclin B1 (Homo sapiens (Human), UniProt P06493)
# Sequence (P06493 whole entry): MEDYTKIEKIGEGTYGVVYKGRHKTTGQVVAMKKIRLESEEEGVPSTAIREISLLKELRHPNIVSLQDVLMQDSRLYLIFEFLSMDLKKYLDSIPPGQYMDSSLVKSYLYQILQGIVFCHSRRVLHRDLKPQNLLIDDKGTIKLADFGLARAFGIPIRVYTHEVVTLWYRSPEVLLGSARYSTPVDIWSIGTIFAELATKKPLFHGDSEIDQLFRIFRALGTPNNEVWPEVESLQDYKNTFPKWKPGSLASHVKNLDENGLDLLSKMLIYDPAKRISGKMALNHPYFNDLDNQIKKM
# Sequence (P14635 whole entry partner): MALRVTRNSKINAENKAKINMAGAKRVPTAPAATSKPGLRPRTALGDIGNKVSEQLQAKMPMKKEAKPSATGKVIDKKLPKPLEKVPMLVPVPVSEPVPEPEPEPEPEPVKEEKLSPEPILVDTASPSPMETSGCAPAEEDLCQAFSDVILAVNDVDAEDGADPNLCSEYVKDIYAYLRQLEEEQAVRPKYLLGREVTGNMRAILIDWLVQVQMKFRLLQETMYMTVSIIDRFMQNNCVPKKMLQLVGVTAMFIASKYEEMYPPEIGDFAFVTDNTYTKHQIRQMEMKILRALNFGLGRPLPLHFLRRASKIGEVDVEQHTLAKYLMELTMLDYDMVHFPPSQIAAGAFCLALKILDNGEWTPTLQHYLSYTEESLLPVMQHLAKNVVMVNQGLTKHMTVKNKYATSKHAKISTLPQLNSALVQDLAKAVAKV
# METHOD_DESCRIPTION: CDK1/Cyclin B1 ADP-Glo Kinase Assay
# Type: biochemical
# TEST_SETTINGS: ADP-Glo, 80 uM ATP; read-out: CDK1 Cyclin B1 IC50
ATTRIBUTE_MEASURED: IC50

Query: IC50; subject: Cc1cc2cnc(NC3CCN(S(=O)(=O)C4CC4)CC3)nc2c(N2CC3(C2)CN(C2CC2)C3)n1
500 to 2000 nM

Bench note: what IC50 did Cc1cc2cnc(NC3CCN(S(=O)(=O)c4ccn(C)n4)CC3)nc2c(N2CC(F)(F)C3(CNC3)C2)n1 show?
< 200 nM

Which value of IC50 has been reported for CCN1CC2(C1)CN(c1ccc(Nc3ncc4ccnc(N5CCC6(C5)CC(F)(F)C6)c4n3)nc1)C2 in the records?
> 2000 nM

// returns reported IC50 for input CS(=O)(=O)N1CC(Nc2ncc3ccnc(N4CCC5(C4)CC5(F)F)c3n2)C1 (centres unmarked)
200 to 500 nM

Param item = O=S(=O)(C1CC1)N1CCC(Nc2ncc3cc(C(F)F)nc(N4CC5(CCNC5)C4)c3n2)CC1 ; retrieve measured IC50.
< 200 nM

---

# TESTED_ON: CDK2/Cyclin E1 (Homo sapiens (Human))
# METHOD_DESCRIPTION: CDK2/Cyclin E1 Full length ADP-Glo Kinase Assay
# TEST_SETTINGS: 20 uM ATP, read-out: CDK2/ CyclinE1 IC50
List of IC50 values.

Known results for compounds:
Consider the compound Cc1cc2cnc(Nc3ccc4c(c3)CN(S(C)(=O)=O)C4)nc2c(N2CC3(CN(C)C3)C2)n1 and give its measured IC50.
< 0.2 µM

Requested field: IC50. Item: Cc1cc2cnc(NC3CCN(S(=O)(=O)c4cnn(C)c4)CC3)nc2c(N2CC(F)(F)C3(CN(C)C3)C2)n1
< 0.2 µM

I would be grateful if you could share the reported IC50 for CN1C[C@@H]2[C@H](C1)[C@H]2Nc1ncc2ccnc(N3CCC4(C3)CC4(F)F)c2n1 (stereo partly drawn) .
0.2 to 0.5 µM

***
Any idea what IC50 was measured for O=S(=O)(CC1CCC1)N1CCC(Nc2ncc3cc(C(F)F)nc(N4CC5(CCNC5)C4)c3n2)CC1 ?
< 0.2 µM

Name the reported IC50 value associated with the compound CS(=O)(=O)N1CCC(Nc2ncc3cc(C4CC4)nc(C4CC5(CNCCO5)C4)c3n2)CC1 (stereo not drawn)
< 0.2 µM

Looking for the measured IC50 of Cc1cc2cnc(Nc3ccc(N4CC5(CN(C)C5)C4)cc3)nc2c(N2CCC3(CCOCC3)C2)n1 , can you help?
0.2 to 0.5 µM

Query (compound): Cc1cc2cnc(NC3CCN(S(C)(=O)=O)CC3)nc2c(C2CC(O)(C(F)F)C2)n1 (stereo not drawn) ; field requested: IC50
< 0.2 µM

Entry CCN1CC2(C1)CN(c1ccc(Nc3ncc4ccnc(N5CCC6(CCOCC6)C5)c4n3)nc1)C2 : reported IC50 = ?
0.5 to 2 µM

Given the entry COC1CC2(C1)CN(c1nc(C3CC3)cc3cnc(NC4CCN(S(C)(=O)=O)CC4)nc13)C2 , report its measured IC50.
< 0.2 µM

What does the record list as IC50 for Cc1cc2cnc(NC3CCN(S(C)(=O)=O)CC3)nc2c(N2CCC3(C2)CC3(F)F)n1 (stereo not drawn) ?
< 0.2 µM

Query (compound): Cc1cc2cnc(NC3CCN(S(C)(=O)=O)CC3)nc2c(N2CC3(CC(O)C3)C2)n1 ; field requested: IC50
< 0.2 µM

Report IC50 for Cc1cc2cnc(NC3CCN(S(C)(=O)=O)CC3)nc2c(N2CC(F)(F)C3(CN(C)C3)C2)n1 please.
< 0.2 µM

---

# TESTED_ON: CDK1/Cyclin B1 (Homo sapiens (Human), UniProt P06493)
# METHOD_DESCRIPTION: CDK1/Cyclin B1 ADP-Glo Kinase Assay
# Assay type: biochemical
# TEST_SETTINGS: ADP-Glo, 80 uM ATP; read-out: CDK1 Cyclin B1 IC50
pIC50: −log10 of the molar value.
ATTRIBUTE_MEASURED: pIC50

The examples below pair each entry with its known result.
I am curious: what pIC50 value has been reported for CS(=O)(=O)N1CCC(Nc2ncc3ccnc(N4CCN(C5CC5)CC4)c3n2)CC1 ?
5.70 to 6.30

Report pIC50 for Cc1cc2cnc(NC3CCN(S(C)(=O)=O)CC3)nc2c(N2CCC3(CC3)C2)n1 please.
> 6.70

# input compound: Cc1cc2cnc(NC3CCN(S(C)(=O)=O)CC3)nc2c(C2CC3(CNCC3(F)F)C2)n1 (centres unmarked) ; wanted: its pIC50
> 6.70

---
Fill in the blank: the reported pIC50 of CCS(=O)(=O)N1CCC(Nc2ncc3cc(C)nc(N4CC(F)(F)C5(CNC5)C4)c3n2)CC1 is ____.
> 6.70

What value of measured pIC50 is listed for Cc1cc2cnc(Nc3ccc4c(c3)CN(C3CC3)C4)nc2c(N2CC3(CCNC3)C2)n1 ?
5.70 to 6.30

# input compound: Cc1cc2cnc(N[C@@H]3CCOC[C@H]3O)nc2c(N2CC(O)(C3CC3)C2)n1 ; wanted: its pIC50
< 5.70

Field request: pIC50 | item: [2H]C([2H])([2H])N1CC2(CN(c3nc(C)cc4cnc(NC5CCN(S(C)(=O)=O)CC5)nc34)CC2(F)F)C1
> 6.70

Endpoint output: pIC50 of CN1CCN(c2ccc(Nc3ncc4ccnc(N5CCC6(CCN(S(C)(=O)=O)C6)C5)c4n3)cc2)CC1 (centres unmarked) . Value?
6.30 to 6.70

---

# TESTED_ON: CDK6/Cyclin D3 (Homo sapiens (Human), UniProt Q00534)
# METHOD_DESCRIPTION: CDK6/Cyclin D3 ADP-Glo Kinase Assay
# TEST_SETTINGS: 100 uM ATP, read-out: CDK6/ CyclinD3 IC50
pIC50: −log10 of the molar value.
// values below are reported pIC50

Would you kindly share the measured pIC50 for Cc1cc2cnc(NC3CCN(S(=O)(=O)C4CC4)CC3)nc2c(N2CC(OC3CC3)C2)n1 [Compound 57] ?
> 6.70

# get_value(readout='pIC50', item= Cc1cc2cnc(NC3CCN(S(=O)(=O)C4CC4)CC3)nc2c(N2CC(F)(F)C3(CNC3)C2)n1 [Example 62] )
> 6.70

Data provenance is patent US20240034731A1.
